- System: BT474
- experiment: Cytotoxicity assay (SRB), BT474
- Format: cell-based
- condition_label: Homo sapiens, BT-474, 144 h, BT474 cells, 6 days, SRB; read-out: In Vitro Cellular Activity IC50 BT474
IC50 vs 20 µM: less than gives fulfilled; not less than gives not fulfilled.

Q: Take the molecule CC1(C)Oc2cc(CN/C=C3\C(=O)NC(=O)c4ccc(Br)cc43)cc(OC(=O)C3CC3)c2O1 and say whether its IC50 is less than 20 µM.
A: not fulfilled

Q: # check: IC50 < 20 µM for O=C1NC(=O)c2ccc(I)cc2/C1=C/Nc1ccc(C2=NCCC2)cc1
A: not fulfilled

Q: Given the entry C=CC(=O)Nc1cnc(CN/C=C2\C(=O)NC(=O)c3ccc(I)cc32)cc1O , would its reported IC50 be below 20 µM?
A: fulfilled

Q: Report whether reported IC50 is lower than 20 µM (strictly) for CN1CCN(c2ccc(NC=C3C(=O)NC(=O)c4ccc(-c5ccc[nH]5)cc43)cc2)CC1
A: fulfilled

----------
- tested_target: cyclin E/CDK2 enzyme (Homo sapiens, UniProt P24941)
- Construct: made in house; host or cells: Sf9 insect cells, recombinant baculovirus
- experiment: CDK2 ELISA kinase assay (phospho-Rb ser 795 detection)
- Type: biochemical
- condition_label: In Vitro Enzyme Assay, cyclin E/CDK2, read-out: CDK2 IC50
observation_type: IC50 (µM)
One number for each entry, in µM.

{"smiles_structure": "O=C1NC(=O)c2ccc(-c3ccc(Cl)cc3)cc2C1=CNCc1ccc(O)c(O)c1", "IC50 (µM)": 5.6}

Q: // fetch IC50 given entry Nc1cccc(-c2ccc3c(c2)C(=CNCc2ccc(O)c(O)c2)C(=O)NC3=O)c1
A: 20.7

----------
- tested_target: cyclin D1/cdk 4 enzyme (Homo sapiens)
- Construct: made in house; host or cells: Sf9 insect cells, recombinant baculovirus
- Sequence (P11802 whole entry, species assumed): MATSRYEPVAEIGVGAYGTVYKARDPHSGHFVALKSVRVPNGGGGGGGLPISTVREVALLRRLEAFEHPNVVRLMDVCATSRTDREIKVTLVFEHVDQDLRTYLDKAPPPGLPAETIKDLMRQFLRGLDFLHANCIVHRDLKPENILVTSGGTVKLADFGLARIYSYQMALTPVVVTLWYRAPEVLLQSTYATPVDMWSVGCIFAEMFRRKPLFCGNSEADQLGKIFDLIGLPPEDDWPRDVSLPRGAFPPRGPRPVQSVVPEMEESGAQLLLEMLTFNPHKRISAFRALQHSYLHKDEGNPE
- Sequence (P24385 whole entry partner, species assumed): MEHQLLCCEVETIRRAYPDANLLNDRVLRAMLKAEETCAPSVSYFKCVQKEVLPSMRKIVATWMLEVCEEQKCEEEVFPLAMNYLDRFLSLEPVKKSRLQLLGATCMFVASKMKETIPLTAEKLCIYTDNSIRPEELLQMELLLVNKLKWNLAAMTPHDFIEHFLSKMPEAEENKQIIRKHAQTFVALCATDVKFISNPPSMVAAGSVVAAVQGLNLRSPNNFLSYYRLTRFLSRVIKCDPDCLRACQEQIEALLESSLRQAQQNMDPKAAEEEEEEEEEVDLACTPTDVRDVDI
- experiment: CDK4 ELISA kinase assay (phospho-Rb ser 795 detection)
- Assay type: biochemical
- condition_label: In Vitro Enzyme Assay, cyclin D1/cdk 4, read-out: CDK4 IC50
# if measured IC50 < 6 µM: t  # else: f

{"smiles_structure": "CCN(CC)Cc1ccc(NC=C2C(=O)NC(=O)c3ccccc32)cc1", "tested_target": "cyclin D1/cdk 4 enzyme (Homo sapiens)", "group": "t"}

Q: # check: IC50 < 6 µM for N#CCc1ccc(NC=C2C(=O)NC(=O)c3ccc(-c4cc5ccccc5s4)cc32)cc1
A: f

Q: Please state whether IC50 is below 6 µM for Cc1ccc(-c2ccc3c(c2)C(=CNCc2ccc(S(N)(=O)=O)cc2)C(=O)NC3=O)cc1
A: t

----------
- Tested on: HCT-116
- experiment: Cytotoxicity assay (SRB), HCT-116
- Assay type: cell-based
- condition_label: Homo sapiens, HCT-116, 72 h, HCT116 cells, SRB, three days; read-out: In Vitro Cellular Activity IC50 HCT116
Please respond with reported IC50 for every item in the list.
One number for each entry, in µM.

Solved cases below.
{"compound": "CC1CCCN1Cc1ccc(N/C=C2\\C(=O)NC(=O)c3ccc(-c4ccoc4)cc32)cc1 (stereo not drawn)", "observation_type": "IC50", "quantitative_readout": 2.3}
{"compound": "O=C1NC(=O)c2ccc([N+](=O)[O-])cc2/C1=C/Nc1ccc(CN2CCCCC2)cc1", "observation_type": "IC50", "quantitative_readout": 3}
{"compound": "C[C@@H]1CN(c2ccc(N/C=C3\\C(=O)NC(=O)c4ccc(-c5ccoc5)cc43)cc2)C[C@H](C)N1C", "observation_type": "IC50", "quantitative_readout": 1.9}
{"compound": "O=C1NC(=O)c2ccc(Br)cc2/C1=C/NCc1ccc(OCC2CC2)c(O)c1", "observation_type": "IC50", "quantitative_readout": 2.8}
{"compound": "CN(CCN1CCCCC1)c1ccc(N/C=C2\\C(=O)NC(=O)c3ccc(Br)cc32)cc1", "observation_type": "IC50", "quantitative_readout": 3.1}

Below are 7 compounds. Give each one its IC50.
1. O=C1NC(=O)c2ccc(Br)cc2/C1=C/Nc1ccc(CCN2CCCC2)cc1
2. COc1cccc(-c2ccc3c(c2)/C(=C/Nc2ccc(CN4CCCCC4)cc2)C(=O)NC3=O)c1
3. COc1ccc(CN/C=C2\C(=O)NC(=O)c3ccc(Br)cc32)cc1F
4. O=C1NC(=O)c2ccccc2/C1=C/Nc1cccc(CN2CCCCCC2)c1
5. CC(C)(C)OC(=O)N1CCN(c2ccc(N/C=C3\C(=O)NC(=O)c4ccc(Br)cc43)cc2)CC1
6. CN1CCC(Oc2ccc(N/C=C3\C(=O)NC(=O)c4ccc(Br)cc43)cc2)C1 (stereo not drawn)
7. C[C@@H]1CN(c2ccc(N/C=C3\C(=O)NC(=O)c4ccc(-c5ccsc5)cc43)cc2)C[C@H](C)N1

A:
[3.4, 1.4, 16, 14, 9, 3.9, 1.6]

Data provenance: patent US7713994B2
